Molecular target: Hck (UniProt P08631)
Sequence (P08631 whole entry, looked up): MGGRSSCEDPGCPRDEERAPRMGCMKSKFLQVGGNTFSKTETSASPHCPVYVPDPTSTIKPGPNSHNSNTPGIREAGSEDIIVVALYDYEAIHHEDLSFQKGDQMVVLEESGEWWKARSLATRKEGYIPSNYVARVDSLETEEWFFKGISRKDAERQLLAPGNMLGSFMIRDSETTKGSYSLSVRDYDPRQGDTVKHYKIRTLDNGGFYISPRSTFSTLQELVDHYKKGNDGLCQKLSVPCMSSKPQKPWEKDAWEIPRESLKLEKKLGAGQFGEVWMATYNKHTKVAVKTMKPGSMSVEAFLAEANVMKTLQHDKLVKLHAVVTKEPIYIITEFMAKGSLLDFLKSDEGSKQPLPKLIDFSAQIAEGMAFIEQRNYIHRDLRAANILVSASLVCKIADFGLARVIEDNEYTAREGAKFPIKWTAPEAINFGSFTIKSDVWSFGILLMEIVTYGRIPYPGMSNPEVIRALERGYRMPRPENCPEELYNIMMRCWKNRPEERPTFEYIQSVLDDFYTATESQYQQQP
Experiment: phosphorylation enrichment, bacterial display (enrichment ratio); higher = better substrate or ligand; peptides without Tyr show the background;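 also: 11-residue human phosphosite peptides and single-mutation variants displayed on the E. coli surface, counted by deep sequencing, each peptide's frequency after selection divided by its frequency in the unselected input library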;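 also: frequency after pTyr selection over input frequency; kinase dosed for 20-30% of maximal phosphorylation in three min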
Reported phosphorylation enrichment values for the following sequences.
Reported metric: phosphorylation enrichment

- LHQSTYQCYDV [SLC7A14_Y693_R695C]: 2.78
- GKLIFYDLRGE [KARS1_Y145]: 0.531
- SAEEDYKADAK [KCNT1_Y876_M877K]: 0.536
- SIGLGYHKDLQ [NF1_Y1169]: 0.424
- SDPIVYTLENI [EMR1_Y534_I533V]: 0.676
- WSFNLYDINKD [KCNIP3_Y174_A170S]: 1.29
- RTVPLYESPRK [DDB1_Y718]: 10.5
